Each item that follows carries a reported OD 490/630 nm.
# TEST SYSTEM: T1, full-length recombinant human PAD4 (human, UniProt Q9UM07 1-663)
# T1 construct: Full-length recombinant; also called peptidylarginine deiminase 4
# T1 sequence (Q9UM07 whole entry): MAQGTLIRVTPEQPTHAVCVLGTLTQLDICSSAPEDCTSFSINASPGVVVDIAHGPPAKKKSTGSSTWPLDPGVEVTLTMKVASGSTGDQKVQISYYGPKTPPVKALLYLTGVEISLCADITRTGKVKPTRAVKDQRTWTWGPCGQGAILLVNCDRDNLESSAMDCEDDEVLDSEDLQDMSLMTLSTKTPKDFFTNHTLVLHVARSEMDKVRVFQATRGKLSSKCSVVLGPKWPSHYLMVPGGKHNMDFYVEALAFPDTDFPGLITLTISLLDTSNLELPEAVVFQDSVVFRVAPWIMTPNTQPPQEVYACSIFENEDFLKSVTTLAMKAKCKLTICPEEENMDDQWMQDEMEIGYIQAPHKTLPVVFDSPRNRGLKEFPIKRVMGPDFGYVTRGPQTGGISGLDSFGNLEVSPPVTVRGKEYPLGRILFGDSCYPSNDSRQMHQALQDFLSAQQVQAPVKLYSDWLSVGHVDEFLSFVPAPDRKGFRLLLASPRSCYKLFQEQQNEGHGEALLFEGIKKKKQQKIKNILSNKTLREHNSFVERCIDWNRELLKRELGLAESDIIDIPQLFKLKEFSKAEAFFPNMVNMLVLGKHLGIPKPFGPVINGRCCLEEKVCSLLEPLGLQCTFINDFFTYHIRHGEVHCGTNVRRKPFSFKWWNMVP
# ASSAY METHOD TEXT: ELISA, coated human PAD4; antibody 1 ug/mL
Reply briefly: the number, and no unit.

[[record]]
binder = "H7 (antibody, V domains shown, Chicken variable regions in a mouse chimeric antibody (IgG1); also called anti-PAD4 antibody H7) VH: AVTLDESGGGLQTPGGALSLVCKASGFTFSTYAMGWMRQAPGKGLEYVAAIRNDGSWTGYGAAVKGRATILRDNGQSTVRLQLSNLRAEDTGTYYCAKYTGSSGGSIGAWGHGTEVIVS VL: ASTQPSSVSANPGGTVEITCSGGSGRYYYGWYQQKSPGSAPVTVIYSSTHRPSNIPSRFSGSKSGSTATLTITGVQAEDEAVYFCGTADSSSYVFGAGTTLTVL"
readout_value = 2.11

[[record]]
binder = "A11 (antibody, V domains shown, Chicken variable regions in a mouse chimeric antibody (IgG1); also called anti-PAD4 antibody A11) VH: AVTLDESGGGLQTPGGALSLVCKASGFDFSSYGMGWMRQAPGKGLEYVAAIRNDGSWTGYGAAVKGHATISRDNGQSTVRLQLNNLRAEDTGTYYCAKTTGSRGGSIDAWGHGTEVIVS VL: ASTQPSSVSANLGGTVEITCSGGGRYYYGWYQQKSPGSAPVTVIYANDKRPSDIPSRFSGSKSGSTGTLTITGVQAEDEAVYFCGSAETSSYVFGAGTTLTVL"
readout_value = 2.15


Now turn to the next binder.
What OD 490/630 nm value was documented for this binder, G8 (antibody, V domains shown, Chicken variable regions in a mouse chimeric antibody (IgG1); also called anti-PAD4 antibody G8) VH: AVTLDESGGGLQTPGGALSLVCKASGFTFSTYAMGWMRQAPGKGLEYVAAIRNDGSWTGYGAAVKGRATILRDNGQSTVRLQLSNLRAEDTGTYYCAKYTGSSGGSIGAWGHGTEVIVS VL: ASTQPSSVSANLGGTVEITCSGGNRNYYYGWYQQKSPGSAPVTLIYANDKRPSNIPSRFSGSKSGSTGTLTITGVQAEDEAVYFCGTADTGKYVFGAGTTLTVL ?
2.12
